Target: T1, recombinant human ASM protein (human, UniProt P17405 47-630)
T1 construct: Recombinant human ASM in solution; also called acid sphingomyelinase (ASM) protein
T1 sequence: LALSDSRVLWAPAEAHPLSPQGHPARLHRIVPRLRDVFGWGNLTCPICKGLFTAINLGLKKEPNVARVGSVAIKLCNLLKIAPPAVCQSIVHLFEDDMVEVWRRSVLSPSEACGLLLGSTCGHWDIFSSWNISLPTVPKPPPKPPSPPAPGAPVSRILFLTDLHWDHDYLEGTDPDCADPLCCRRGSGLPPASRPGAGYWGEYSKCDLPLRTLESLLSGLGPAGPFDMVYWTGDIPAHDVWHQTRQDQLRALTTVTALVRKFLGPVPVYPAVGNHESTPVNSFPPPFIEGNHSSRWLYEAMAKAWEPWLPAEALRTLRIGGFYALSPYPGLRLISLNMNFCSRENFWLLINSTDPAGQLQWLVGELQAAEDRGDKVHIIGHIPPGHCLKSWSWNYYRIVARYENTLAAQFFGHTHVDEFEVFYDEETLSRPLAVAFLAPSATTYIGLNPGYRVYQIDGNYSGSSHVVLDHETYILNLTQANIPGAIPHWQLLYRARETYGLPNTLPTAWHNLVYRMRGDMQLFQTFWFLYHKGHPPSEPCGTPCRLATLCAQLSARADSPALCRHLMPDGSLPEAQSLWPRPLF
Experiment: BLI (Octet), antibody on AHC sensor
Item-by-item account of kon
Kindly provide the numeric value in M⁻¹ s⁻¹ only, without the unit symbol.

Some binders with known kon results, for comparison:
binder	reading unit	kon
#9104v-L29 (antibody, human IgG4 S228P, lambda, V domains shown, Full-length IgG, lambda) VH: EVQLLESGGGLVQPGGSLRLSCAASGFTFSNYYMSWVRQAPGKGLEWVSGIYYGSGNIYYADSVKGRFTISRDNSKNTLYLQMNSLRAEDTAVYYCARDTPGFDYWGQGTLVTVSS VL: QSVLTQPPSASGTPGQRVTISCTGSSSNIGNNAVNWYQQLPGTAPKLLIYYDSFRSTGVPDRFSGSKSGTSASLAISGLRSEDEADYYCGAWDYSLSAYVFGGGTKLTVLG	M⁻¹ s⁻¹	272000
#9104v-L65 (antibody, human IgG4 S228P, lambda, V domains shown, Full-length IgG, lambda) VH: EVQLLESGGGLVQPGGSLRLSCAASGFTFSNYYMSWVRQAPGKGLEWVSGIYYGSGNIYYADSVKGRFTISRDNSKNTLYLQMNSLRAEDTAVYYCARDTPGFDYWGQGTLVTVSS VL: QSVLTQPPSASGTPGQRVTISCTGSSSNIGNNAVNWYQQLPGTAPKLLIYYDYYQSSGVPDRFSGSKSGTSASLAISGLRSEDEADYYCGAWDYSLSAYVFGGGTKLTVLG	M⁻¹ s⁻¹	360000
#9104v-L12 (antibody, human IgG4 S228P, lambda, V domains shown, Full-length IgG, lambda) VH: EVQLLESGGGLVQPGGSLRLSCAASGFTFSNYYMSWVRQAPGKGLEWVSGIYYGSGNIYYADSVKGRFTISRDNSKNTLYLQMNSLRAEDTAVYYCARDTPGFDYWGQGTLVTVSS VL: QSVLTQPPSASGTPGQRVTISCTGSSSNIGNNAVNWYQQLPGTAPKLLIYYDIFRPDGVPDRFSGSKSGTSASLAISGLRSEDEADYYCGAWDYSLSAYVFGGGTKLTVLG	M⁻¹ s⁻¹	221000
#9104v-L34 (antibody, human IgG4 S228P, lambda, V domains shown, Full-length IgG, lambda) VH: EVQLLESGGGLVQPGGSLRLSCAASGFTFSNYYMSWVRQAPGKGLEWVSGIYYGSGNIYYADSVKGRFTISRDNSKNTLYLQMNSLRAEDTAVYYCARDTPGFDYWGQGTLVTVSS VL: QSVLTQPPSASGTPGQRVTISCTGSSSNIGNNAVNWYQQLPGTAPKLLIYYDSYQASGVPDRFSGSKSGTSASLAISGLRSEDEADYYCGAWDYSLSAYVFGGGTKLTVLG	M⁻¹ s⁻¹	306000

# next binder below
Ask: For the binder shown here, #9104v-L37 (antibody, human IgG4 S228P, lambda, V domains shown, Full-length IgG, lambda) VH: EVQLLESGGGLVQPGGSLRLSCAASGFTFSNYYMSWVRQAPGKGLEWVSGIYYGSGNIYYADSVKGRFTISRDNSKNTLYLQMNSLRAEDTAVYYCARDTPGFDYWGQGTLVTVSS VL: QSVLTQPPSASGTPGQRVTISCTGSSSNIGNNAVNWYQQLPGTAPKLLIYYDSYRASGVPDRFSGSKSGTSASLAISGLRSEDEADYYCGAWDYSLSAYVFGGGTKLTVLG , give the reported kon.
Reply: 259000
